Record form. Attribute: kcat/Km. Fill in for each entry.
substrate: O=C(O)/C=C/c1ccc(O)c(O)c1; experiment: purified protein; settings: optimal conditions; co-substrate SAM
Entry rule: numbers only, all in M⁻¹ s⁻¹.

GET /value?item= AtCOMT (Arabidopsis thaliana; F174L) (protein) MGSTAETQLTPVQVTDDEAALFAMQLASASVLPMALKSALELDLLEIMAKNGSPMSPTEIASKLPTKNPEAPVMLDRILRLLTSYSVLTCSNRKLSGDGVERIYGLGPVCKYLTKNEDGVSIAALCLMNQDKVLMESWYHLKDAILDGGIPFNKAYGMSAFEYHGTDPRFNKVLNNGMSNHSTITMKKILETYKGFEGLTSLVDVGGGIGATLKMIVSKYPNLKGINFDLPHVIEDAPSHPGIEHVGGDMFVSVPKGDAIFMKWICHDWSDEHCVKFLKNCYESLPEDGKVILAECILPETPDSSLSTKQVVHVDCIMLAHNPGGKERTEKEFEALAKASGFKGIKVVCDAFGVNLIELLKKL &field=kcat/Km returns 1120

GET /value?item= AtCOMT (Arabidopsis thaliana; H313A/N129V) (protein) MGSTAETQLTPVQVTDDEAALFAMQLASASVLPMALKSALELDLLEIMAKNGSPMSPTEIASKLPTKNPEAPVMLDRILRLLTSYSVLTCSNRKLSGDGVERIYGLGPVCKYLTKNEDGVSIAALCLMVQDKVLMESWYHLKDAILDGGIPFNKAYGMSAFEYHGTDPRFNKVFNNGMSNHSTITMKKILETYKGFEGLTSLVDVGGGIGATLKMIVSKYPNLKGINFDLPHVIEDAPSHPGIEHVGGDMFVSVPKGDAIFMKWICHDWSDEHCVKFLKNCYESLPEDGKVILAECILPETPDSSLSTKQVVAVDCIMLAHNPGGKERTEKEFEALAKASGFKGIKVVCDAFGVNLIELLKKL &field=kcat/Km returns 1390

GET /value?item= AtCOMT (Arabidopsis thaliana; N129V) (protein) MGSTAETQLTPVQVTDDEAALFAMQLASASVLPMALKSALELDLLEIMAKNGSPMSPTEIASKLPTKNPEAPVMLDRILRLLTSYSVLTCSNRKLSGDGVERIYGLGPVCKYLTKNEDGVSIAALCLMVQDKVLMESWYHLKDAILDGGIPFNKAYGMSAFEYHGTDPRFNKVFNNGMSNHSTITMKKILETYKGFEGLTSLVDVGGGIGATLKMIVSKYPNLKGINFDLPHVIEDAPSHPGIEHVGGDMFVSVPKGDAIFMKWICHDWSDEHCVKFLKNCYESLPEDGKVILAECILPETPDSSLSTKQVVHVDCIMLAHNPGGKERTEKEFEALAKASGFKGIKVVCDAFGVNLIELLKKL &field=kcat/Km returns 828

GET /value?item= AtCOMT (Arabidopsis thaliana; H313A) (protein) MGSTAETQLTPVQVTDDEAALFAMQLASASVLPMALKSALELDLLEIMAKNGSPMSPTEIASKLPTKNPEAPVMLDRILRLLTSYSVLTCSNRKLSGDGVERIYGLGPVCKYLTKNEDGVSIAALCLMNQDKVLMESWYHLKDAILDGGIPFNKAYGMSAFEYHGTDPRFNKVFNNGMSNHSTITMKKILETYKGFEGLTSLVDVGGGIGATLKMIVSKYPNLKGINFDLPHVIEDAPSHPGIEHVGGDMFVSVPKGDAIFMKWICHDWSDEHCVKFLKNCYESLPEDGKVILAECILPETPDSSLSTKQVVAVDCIMLAHNPGGKERTEKEFEALAKASGFKGIKVVCDAFGVNLIELLKKL &field=kcat/Km returns 606
